FYI, the data here is from ChEMBL document CHEMBL1201862.

System: HOP-92
Assay: NCI tumour cell line growth inhibition, 48 h
The source made the active and inactive calls. No stated cut-off is given here; in the data, active = GI50 up to about 1.1 µM and inactive = higher. Non-standard residues stand in square brackets, D forms with d. Residues, ends and D or L forms follow the SMILES beside them. ξ: configuration not given here. *: point of attachment. ξNMeF = CNC(Cc1ccccc1)C(=O)O; NMeV = CN[C@H](C(=O)O)C(C)C; Boc = CC(C)(C)OC(=O)*; OBn = c1ccc(CO*)cc1
measured.endpoint: GI50

Challenge: Write down the reported GI50 of OC1(C(F)(F)F)OCCN=C1C(F)(F)F (stereo not given) , test system: HOP-92.
Response given: 60.5 µM (inactive)

Challenge: Okay, and N#Cc1ccc(C(O)C(F)(F)c2nc3ccccc3o2)cc1 (stereo not given) ?
Response given: 53.3 µM (inactive)

Challenge: Field entry: "CCN(CC)CCNc1ccc2ncn3c4ccccc4c(=O)c1c23"
Response given: 2.28 µM (inactive)

Challenge: Same for NC1CC(=O)c2csc(Br)c21 (stereo not given)
Response given: 9.89 µM (inactive)

Challenge: Consider next the compound CCOC(=O)C(C(=S)Nc1ccccc1)c1nn2c(=O)cc(C)nc2s1 (stereo not given) in the same way.
Response given: 16.4 µM (inactive)

Challenge: Another compound: "O=C(CCN1CCCCC1)Nc1ccc2c(c1)C(=O)c1ccc(NC(=O)CCN3CCCCC3)cc1C2=O"
Response given: 15.4 µM (inactive)

Challenge: Same question, "CSc1c(C#N)c(O)nc(N)c1C(=O)Nc1ccc(Cl)cc1" this time
Response given: 21.7 µM (inactive)

Challenge: Input CC(C)[C@@H](C(=O)N(C)[C@H](C(=O)N1CCC[C@H]1C(=O)OCc1ccccc1)C(C)C)N(C)C(=O)C(Cc1ccccc1)N(C)C(=O)[C@H](NC(=O)OC(C)(C)C)C(C)C (stereo not given in full) (Boc-[dV][ξNMeF][NMeV][NMeV]P-OBn)
Response given: 8.34 µM (inactive)

Challenge: What do you have for CC1(C)CCCC2CC2CCC(C)(C)C1=O (stereo not given) ?
Response given: 74.8 µM (inactive)

Challenge: Same again, this time with "O=c1c2c([N+](=O)[O-])cccc2nc2[nH]c3ccccc3n12"
Response given: 19.8 µM (inactive)
